This collection of values is drawn from patent US20030236202A1.

Test System: UniProt:P19643
Sequence (P19643 1-520): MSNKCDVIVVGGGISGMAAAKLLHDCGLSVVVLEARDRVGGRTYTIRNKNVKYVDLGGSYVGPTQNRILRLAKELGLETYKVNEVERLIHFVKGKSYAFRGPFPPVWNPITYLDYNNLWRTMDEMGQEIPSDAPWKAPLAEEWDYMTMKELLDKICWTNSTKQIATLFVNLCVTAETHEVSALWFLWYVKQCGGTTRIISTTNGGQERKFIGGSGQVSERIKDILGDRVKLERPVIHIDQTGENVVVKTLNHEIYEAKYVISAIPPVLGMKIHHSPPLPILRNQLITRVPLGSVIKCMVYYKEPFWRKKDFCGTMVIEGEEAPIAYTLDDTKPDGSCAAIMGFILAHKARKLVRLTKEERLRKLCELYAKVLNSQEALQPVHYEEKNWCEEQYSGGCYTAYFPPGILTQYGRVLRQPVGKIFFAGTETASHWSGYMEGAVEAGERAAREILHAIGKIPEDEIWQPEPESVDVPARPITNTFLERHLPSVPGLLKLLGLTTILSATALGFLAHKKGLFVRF
pIC50: −log10 of the molar value.
Result Type: pIC50

INSERT INTO measurements (molecule, numeric_value) VALUES
  ('OCCc1ccc(O)c(O)c1 [Hydroxytyrosol, 2-(3,4-dihydroxyphenyl) ethanol]', 4.79);
